# test_system: GST-KLHDC10 (full length) with Elongin B/C (human | , UniProt Q6PID8 1-442; Q15370 1-104; Q15369 1-112)
# Sequence (Q6PID8 whole entry, chain 1 of 2): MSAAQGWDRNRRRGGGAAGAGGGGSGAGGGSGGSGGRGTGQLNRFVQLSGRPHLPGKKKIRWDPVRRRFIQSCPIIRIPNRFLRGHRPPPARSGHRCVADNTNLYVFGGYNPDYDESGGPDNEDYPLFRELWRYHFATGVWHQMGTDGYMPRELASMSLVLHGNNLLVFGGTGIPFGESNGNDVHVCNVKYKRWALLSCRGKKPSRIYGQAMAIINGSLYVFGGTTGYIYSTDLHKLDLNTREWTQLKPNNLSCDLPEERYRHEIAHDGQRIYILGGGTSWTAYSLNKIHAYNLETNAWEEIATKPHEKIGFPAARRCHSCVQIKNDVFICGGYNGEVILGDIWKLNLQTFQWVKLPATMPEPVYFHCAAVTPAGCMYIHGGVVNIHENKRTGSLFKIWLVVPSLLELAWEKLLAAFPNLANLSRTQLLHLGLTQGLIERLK
# Sequence (Q15369 whole entry, chain 3 of 2): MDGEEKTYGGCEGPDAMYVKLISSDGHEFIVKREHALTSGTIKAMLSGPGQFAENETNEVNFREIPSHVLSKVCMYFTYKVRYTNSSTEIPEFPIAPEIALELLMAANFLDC
# measurement_description: AlphaScreen or HTRF

[
  {
    "binder": "MDELYKAAAAAA [MDELYKAAAAAA (Ala-tail peptide, non-biotinylated)]",
    "IC50": "5 to 10 nM"
  }
]
